Every entry's value here was drawn from PubChem BioAssay AID435003.

EXPERIMENT NOTES: inhibitors of induced NF-kB luciferase reporter, primary screen, TCR NF-kB activation inhibitor project, cell-based, luminescence, uHTS (AID 435003)
TEST PARAMETERS: Jurkat, PMA/ionomycin-induced NF-kB luciferase reporter, at 4 µM
Among all 330,000 compounds or so, about 1,700 (0.52%) were called active. Rule as the data show it: active = inhibition above about 50%; inactive = the rest. The sample as a whole holds a higher share of actives than the screen did.
Classes used: active, inactive

Cc1cccc(NS(=O)(=O)c2ccc(-c3cnc(C4CC4)o3)cc2)c1	active
Cc1ccc2nc(-c3ccncc3)cc(C(=O)Nc3ccc(OC(F)F)cc3)c2c1	active
O=C(NC(Nc1nc2ccc([N+](=O)[O-])cc2s1)(C(F)(F)F)C(F)(F)F)c1ccccc1	active
O=C(NCCC1CCCCN1S(=O)(=O)c1ccc(F)cc1)C(=O)NC1CC1 (centres undefined)	inactive
O=C(NCCC1CCCCN1S(=O)(=O)c1cccs1)C(=O)Nc1ccc(F)cc1F (centres undefined)	active
COc1ccc(CCNC(=O)/C(C#N)=C2\N=C(NC(=O)c3cccs3)c3ccccc32)cc1	inactive
CCN(CC)CCNC(=O)c1ccc(NC(=O)c2cc(-c3ccncc3)nc3ccccc23)cc1	inactive
O=C(O)c1cc([N+](=O)[O-])c(Nc2cccc3ccccc23)c([N+](=O)[O-])c1	inactive
Cc1ccc2nc(-c3ccccn3)cc(C(=O)Nc3ccc4c(c3)OCO4)c2c1	inactive

====

EXPERIMENT NOTES: inhibitors of induced NF-kB luciferase reporter, primary screen, TCR NF-kB activation inhibitor project, cell-based, luminescence, uHTS (AID 435003)
TEST PARAMETERS: Jurkat, PMA/ionomycin-induced NF-kB luciferase reporter, at 4 µM
Out of some 330,000 compounds screened, about 1,700 (0.52%) were called active. Rule as the data show it: active = inhibition above about 50%; inactive = the rest. This is one part of a sample in which actives are shown more often than they occur.
Classes used: t (active), f (inactive)

COc1ccc(C(=O)COC(=O)C(O)c2ccccc2)c(OC)c1 (configuration not stated)	f
CCOC(=O)c1ccc(NC(=O)Cn2cnc3cc(C)c(C)cc32)cc1	t
CCc1nc(Nc2ccc(NC(C)=O)cc2)c2oc3ccccc3c2n1	f
CC(=O)Nc1ccc(Nc2cc(C)nc(Nc3ccc(NC(C)=O)cc3)n2)cc1	f
COc1ccc(NC(=O)N(C)C[C@H]2Oc3ccc(NC(=O)C4CC4)cc3C(=O)N([C@H](C)CO)C[C@@H]2C)cc1	f
CCOC(=O)c1ccc(NC(=O)Cc2cccs2)cc1	f
CC(=O)Nc1ccc(Nc2c3ccccc3nc3ccccc23)cc1	t
CCCc1nnc(SCC(=O)Nc2ccc(C(=O)OCC)cc2)o1	f
O=C(Nc1cccc(S(=O)(=O)N2CCCCC2)c1)c1cncc(Br)c1	f
Nc1cccnc1Sc1ccccc1	f
CC(=O)Nc1ccc(NC(=O)C2CCCN(S(=O)(=O)c3ccc(Cl)cc3)C2)cc1 (configuration not stated)	f
O=C(Nc1ccccc1Cl)/C(Cl)=C(\Cl)S(=O)c1ccccc1 (configuration not stated)	t

====

inhibition: recorded values
EXPERIMENT NOTES: inhibitors of induced NF-kB luciferase reporter, primary screen, TCR NF-kB activation inhibitor project, cell-based, luminescence, uHTS (AID 435003)
TEST PARAMETERS: Jurkat, PMA/ionomycin-induced NF-kB luciferase reporter, at 4 µM, hits give high values
About 1,700 (0.52%) of roughly 330,000 compounds were called active. Only a selection was taken, and actives are over-represented in it overall.
READOUT NAME: inhibition (%)

CCCNC(=O)c1cnc(-c2ccccc2)nc1-c1ccccc1	17.2
Cc1ccc(F)cc1S(=O)(=O)Nc1cccc(C(=O)N2CCCC(C(N)=O)C2)c1 (stereo unspecified)	12.4
O=[N+]([O-])c1ccccc1S(=O)(=O)Nc1cccc2cccnc12	70.3
NS(=O)(=O)c1ccc(CCNS(=O)(=O)c2cccc3cccnc23)cc1	-18.6
Cc1c(Br)c([N+](=O)[O-])nn1C(C)C(=O)Nc1nccs1 (stereo unspecified)	22.7
O=S(=O)(NCCc1ccc(F)cc1)c1cccc2cccnc12	2.69
